Could you please report measured GI50 for the items listed next?
# System: NCI/ADR-RES
# procedureSummary: NCI tumour cell line growth inhibition, 48 h
The source made the active and inactive calls. Rule as the data show it: active = GI50 up to about 1.1 µM and inactive = higher.

Reported GI50 of `CC1(C)C2CCC1(C)[C@H](n1c(=O)n([C@@H]3CC4CCC3(C)C4(C)C)c(=O)n([C@@H]3CC4CCC3(C)C4(C)C)c1=O)C2` : > 100 µM (inactive)

Reported GI50 of `Br/C(=N\N=c1/nn[nH][nH]1)c1ccncc1` : > 100 µM (inactive)

Reported GI50 of CCOC(=O)/C=C(/OCC)[C@@H]1C(C(=O)c2ccc(Cl)cc2)[C@H]1/C(=C\C(=O)OCC)OCC (stereo not given in full) : 29 µM (inactive)

Reported GI50 of CCOC(=O)NC(N(C)C(C(C)C)P(=O)(OCC)OCC)(C(F)(F)F)C(F)(F)F (stereo not given) : > 100 µM (inactive)

Reported GI50 of `O=C(NCCCCCCNC(=O)c1cc(-c2ccccc2)nc2ccccc12)c1cc(-c2ccccc2)nc2ccccc12` : > 100 µM (inactive)

Reported GI50 of `CC/C(Cl)=N\OC(=O)Nc1ccc(C#N)cc1` : 13.3 µM (inactive)

Reported GI50 of CN1CC2CN(Cc3ccccc3)CCN2c2cccnc21 (stereo not given) : 32.1 µM (inactive)

Reported GI50 of `CCCCCCc1cc2cc(C(=O)NCc3ccccc3)c(=N)oc2cc1O` : > 100 µM (inactive)

Reported GI50 of CCOC(=O)C(C)c1nc2ccc(C(F)(F)F)cc2[nH]c1=O (stereo not given) : 37.4 µM (inactive)

Reported GI50 of `CC(=O)C1(c2ccccc2)CCN(Cn2sc3nc(C)cc(C)c3c2=O)CC1` : 32 µM (inactive)
